Data provenance: patent US8993594B2

Molecular target: PARP-2 FL (Homo sapiens)
Sequence (Q9UGN5 whole entry): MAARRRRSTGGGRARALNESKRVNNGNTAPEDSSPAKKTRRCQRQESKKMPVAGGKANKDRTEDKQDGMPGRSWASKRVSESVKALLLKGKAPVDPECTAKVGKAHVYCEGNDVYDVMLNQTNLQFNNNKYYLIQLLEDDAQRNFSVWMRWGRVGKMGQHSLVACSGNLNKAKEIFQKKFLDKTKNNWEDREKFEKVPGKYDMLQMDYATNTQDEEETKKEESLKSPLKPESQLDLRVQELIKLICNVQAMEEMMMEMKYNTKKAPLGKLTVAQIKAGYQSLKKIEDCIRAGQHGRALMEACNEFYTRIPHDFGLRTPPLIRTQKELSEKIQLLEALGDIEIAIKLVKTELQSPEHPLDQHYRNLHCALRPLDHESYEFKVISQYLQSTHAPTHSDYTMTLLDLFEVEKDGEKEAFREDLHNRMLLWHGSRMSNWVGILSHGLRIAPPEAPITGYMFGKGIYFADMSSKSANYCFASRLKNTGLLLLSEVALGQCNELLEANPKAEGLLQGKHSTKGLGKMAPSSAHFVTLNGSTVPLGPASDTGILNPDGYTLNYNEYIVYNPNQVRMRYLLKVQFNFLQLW
Assay: Fluorescence polarization probe displacement assay
Format: binding
Details: compound P1 as the probe
Counter-ions that a name gives are not always drawn.
value.type: DC50 (µM)

CCN(CC)CCOc1c(-c2ccccc2)[nH]c(=O)c2cc(F)ccc12 [Compound 88, trifluoroacetate] | 5.85

(a) O=c1[nH]c(-c2ccccc2)c(OCCCN2CCCC2)c2ccccc12
(b) NCCCOc1c(-c2ccccc2)[nH]c(=O)c2ccccc12 [Compound 3, hydrochloride]
[in] Of the two listed items, which has the higher DC50? First: a Second: b Field: selected label. Fill in the label of the entry you choose.
[out] b
(b: 4.1 µM, a: 1.58 µM)

(1) COc1cccc(-c2[nH]c(=O)c3ccccc3c2OCCN2CCCCC2)c1
(2) NCCOc1c(-c2cccc(Cl)c2)[nH]c(=O)c2cc(F)ccc12 [Compound 50, hydrochloride]
[in] Field: lower recorded DC50 (choose 1 or 2 ) Field: selected label. Fill in the label of the entry you choose.
[out] 1

(I) O=c1[nH]c(-c2ccccc2)c(OCCCN2CCNCC2)c2ccccc12 [Compound 14, di-hydrochloride]
(II) NCCOc1c(-c2cccc(O)c2)[nH]c(=O)c2cc(F)ccc12
(III) NCCOc1c(-c2ccc(O)cc2)[nH]c(=O)c2cc(F)ccc12 [Compound 28, hydrobromide]
[in] hey, can you rank those molecules up there by DC50? biggest number first please Response field: labels, in requested order.
[out] I, III, II

(A) O=c1[nH]c(-c2cccc(O)c2)c(OCCCN2CCCCC2)c2ccccc12
(B) CN(C)CCOc1c(-c2ccccc2)[nH]c(=O)c2ccccc12
(C) CC(=O)NCCCOc1c(-c2ccccc2)[nH]c(=O)c2ccccc12
[in] hey, can you rank those molecules up there by DC50? biggest number first please Response field: labels, in requested order.
[out] B, C, A
(B: 3.28 µM, C: 0.91 µM, A: 0.58 µM)

---

Target: PARP-1 FL (Homo sapiens)
Experiment: Fluorescence polarization probe displacement assay
Assay type: binding
Structures can show the parent of a compound that is named as a salt.
value.type: Kd

Sample records with Kd:
CC(=O)NCCCOc1c(-c2ccccc2)[nH]c(=O)c2ccccc12 [Compound 4] | 0.19 µM
CC(=O)NCCOc1c(-c2ccccc2)[nH]c(=O)c2ccccc12 [Compound 2] | 0.2 µM
Cc1cccc2c(=O)[nH]c(-c3ccccc3)c(OCCN)c12 [Compound 49, hydrochloride] | < 0.01 µM
CN1CCN(CCOc2c(-c3ccccc3)[nH]c(=O)c3ccccc23)CC1 [Compound 19, di hydrochloride] | < 0.03 µM
NCCOc1c(-c2cccc(Cl)c2)[nH]c(=O)c2cc(F)ccc12 [Compound 50, hydrochloride] | < 0.03 µM

PARP-1 FL (Homo sapiens) data for CNCCCOc1c(-c2ccccc2)[nH]c(=O)c2ccccc12.Cl [Compound 12, hydrochloride] ; its Kd: 0.05 µM

PARP-1 FL (Homo sapiens) data for NCCCCOc1c(-c2ccccc2)[nH]c(=O)c2ccccc12 [Compound 22, hydrochloride] ; its Kd: < 0.03 µM

PARP-1 FL (Homo sapiens) data for O=c1[nH]c(-c2ccccc2)c(OCCN2CCNCC2)c2ccccc12 [Compound 6, di-hydrochloride] ; its Kd: < 0.03 µM

---

Molecular target: PARP-1 FL (Homo sapiens, UniProt P09874)
Sequence (P09874 whole entry): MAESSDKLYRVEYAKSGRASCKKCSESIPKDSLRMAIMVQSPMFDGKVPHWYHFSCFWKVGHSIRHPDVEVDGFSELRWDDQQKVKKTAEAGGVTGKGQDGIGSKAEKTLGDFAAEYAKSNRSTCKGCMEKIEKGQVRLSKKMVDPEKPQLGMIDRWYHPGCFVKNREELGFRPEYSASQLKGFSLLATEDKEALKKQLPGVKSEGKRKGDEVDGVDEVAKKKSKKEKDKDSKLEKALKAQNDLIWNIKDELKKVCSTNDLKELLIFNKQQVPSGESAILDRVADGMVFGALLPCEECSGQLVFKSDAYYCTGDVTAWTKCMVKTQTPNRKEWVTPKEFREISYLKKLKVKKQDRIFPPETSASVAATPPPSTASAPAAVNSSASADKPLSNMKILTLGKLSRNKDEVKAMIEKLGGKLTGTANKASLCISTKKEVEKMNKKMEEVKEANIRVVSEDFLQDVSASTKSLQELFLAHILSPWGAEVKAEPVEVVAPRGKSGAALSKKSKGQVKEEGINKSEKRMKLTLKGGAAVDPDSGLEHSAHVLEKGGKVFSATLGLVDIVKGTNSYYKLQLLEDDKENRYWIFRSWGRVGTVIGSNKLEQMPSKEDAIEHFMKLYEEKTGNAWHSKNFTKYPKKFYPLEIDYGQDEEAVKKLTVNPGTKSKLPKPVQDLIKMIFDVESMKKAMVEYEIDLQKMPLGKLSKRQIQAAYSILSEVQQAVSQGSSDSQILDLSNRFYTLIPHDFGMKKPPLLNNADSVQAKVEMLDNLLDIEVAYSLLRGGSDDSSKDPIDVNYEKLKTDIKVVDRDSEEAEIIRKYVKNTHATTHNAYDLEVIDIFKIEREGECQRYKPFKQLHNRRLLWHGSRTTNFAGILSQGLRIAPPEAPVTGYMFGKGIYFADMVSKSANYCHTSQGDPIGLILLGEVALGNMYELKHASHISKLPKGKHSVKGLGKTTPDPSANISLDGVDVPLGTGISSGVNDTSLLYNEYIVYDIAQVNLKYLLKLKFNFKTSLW
Experiment: Fluorescence polarization probe displacement assay
Assay type: binding
Structures can show the parent of a compound that is named as a salt.
value.type: Kd

Sample records with Kd:
COc1ccc(-c2[nH]c(=O)c3ccccc3c2OCCN)cc1.Cl [Compound 24, hydrochloride] | < 0.03 µM
CN(C)CCOc1c(-c2ccccc2)[nH]c(=O)c2ccccc12 | < 0.03 µM

The recorded Kd for entry COc1cccc(-c2[nH]c(=O)c3ccccc3c2OCCCN2CCCCC2)c1 equals 0.05 µM

The recorded Kd for entry CN1CCN(CCCOc2c(-c3ccccc3)[nH]c(=O)c3ccccc23)CC1 [Compound 20, di hydrochloride] equals 0.05 µM

The recorded Kd for entry NCCOc1c(-c2ccc(O)cc2)[nH]c(=O)c2ccccc12 equals < 0.01 µM

The recorded Kd for entry Cl.NCCOc1c(-c2cccc(Cl)c2)[nH]c(=O)c2ccccc12 [Compound 48, hydrochloride] equals < 0.01 µM

The recorded Kd for entry COc1ccc(-c2[nH]c(=O)c3ccccc3c2OCCCN2CCCCC2)cc1 equals < 0.03 µM

The recorded Kd for entry O=c1[nH]c(-c2ccccc2)c(OCCCN2CCCCC2)c2ccccc12 [Compound 5, trifluoroacetate] equals < 0.03 µM

The recorded Kd for entry CC(=O)N1CCN(CCOc2c(-c3ccccc3)[nH]c(=O)c3ccccc23)CC1 equals < 0.03 µM

The recorded Kd for entry COc1cccc(-c2[nH]c(=O)c3cc(F)ccc3c2OCCN)c1 [Compound 46, hydrochloride] equals < 0.01 µM

The recorded Kd for entry Cl.NCCOc1c(-c2ccccc2)[nH]c(=O)c2cc(F)ccc12 [Compound 39, hydrochloride] equals < 0.01 µM

The recorded Kd for entry O=c1[nH]c(-c2ccccc2)c(OCCCN2CCNCC2)c2ccccc12 [Compound 14, di-hydrochloride] equals < 0.03 µM

The recorded Kd for entry O=c1[nH]c(-c2cccc(O)c2)c(OCCCN2CCCCC2)c2ccc(F)cc12 [Compound 45, hydrochloride] equals < 0.03 µM

The recorded Kd for entry O=c1[nH]c(-c2cccc(Cl)c2)c(OCCCN2CCCCC2)c2ccccc12 equals < 0.03 µM

The recorded Kd for entry NCCOc1c(-c2cccc(O)c2)[nH]c(=O)c2ccccc12 [Compound 32, hydrochloride] equals < 0.03 µM

The recorded Kd for entry COc1cccc(-c2[nH]c(=O)c3ccccc3c2OCCN)c1.Cl [Compound 11, hydrochloride] equals < 0.03 µM

The recorded Kd for entry CCN(CC)CCCOc1c(-c2ccccc2)[nH]c(=O)c2ccccc12 [Compound 18, hydrochloride] equals < 0.03 µM

---

Molecular target: PARP-2 FL (Homo sapiens)
Experiment: Fluorescence polarization probe displacement assay
Assay type: binding
Settings: compound P1 as the probe
Structures can show the parent of a compound that is named as a salt.
value.type: DC50 (µM)

Cc1cccc2c(=O)[nH]c(-c3ccccc3)c(OCCN)c12 [Compound 49, hydrochloride] | 0.97

(1) NCCOc1c(-c2cccc(O)c2)[nH]c(=O)c2ccccc12 [Compound 32, hydrochloride]
(2) CNCCCOc1c(-c2ccccc2)[nH]c(=O)c2ccccc12.Cl [Compound 12, hydrochloride]
(3) NCCOc1c(-c2ccsc2)[nH]c(=O)c2ccccc12 [Compound 29, hydrochloride]
[in] hey, can you rank those molecules up there by DC50? biggest number first please Response field: labels, in requested order.
[out] 2, 1, 3
(2: 2.91 µM, 1: 0.79 µM, 3: 0.54 µM)

(a) NCCOc1c(-c2ccc(O)cc2)[nH]c(=O)c2ccccc12
(b) O=C(NCCCOc1c(-c2ccccc2)[nH]c(=O)c2ccccc12)c1ccccc1
(c) O=c1[nH]c(-c2cccc(O)c2)c(OCCCN2CCCCC2)c2ccc(F)cc12 [Compound 45, hydrochloride]
(d) NCCOc1c(-c2ccccc2)[nH]c(=O)c2ccccc12 [Compound 1, hydrochloride]
[in] Rank the items in ascending order with respect to DC50. Response field: labels, in requested order.
[out] c, a, d, b
(c: 0.42 µM, a: 0.68 µM, d: 2.89 µM, b: 4.29 µM)

(A) COc1cccc(-c2[nH]c(=O)c3cc(F)ccc3c2OCCCN2CCCCC2)c1 [Compound 43, hydrochloride]
(B) O=c1[nH]c(-c2ccc(O)cc2)c(OCCCN2CCCCC2)c2ccccc12
[in] Field: lower recorded DC50 (choose A or B ) Field: selected label. Fill in the label of the entry you choose.
[out] B
(B: 0.77 µM, A: 4.21 µM)

---

Molecular target: UniProt:Q9UGN5
Experiment: Fluorescence polarization probe displacement assay
Assay type: binding
Conditions: compound P1 as the probe
Where a name gives a salt, the structure may show the parent alone.
value.type: DC50 (µM)

NCCCCOc1c(-c2ccccc2)[nH]c(=O)c2ccccc12 [Compound 22, hydrochloride] | 4.08
CN(C)CCOc1c(-c2ccccc2)[nH]c(=O)c2cc(F)ccc12 | 3.86
O=c1[nH]c(-c2ccccc2)c(OCCCN2CCCCC2)c2ccc(F)cc12 | 3.78
COc1ccc(-c2[nH]c(=O)c3cc(F)ccc3c2OCCN)cc1.Cl [Compound 25, hydrochloride] | 2.29
Cl.NCCOc1c(-c2ccccc2)[nH]c(=O)c2cc(F)ccc12 [Compound 39, hydrochloride] | 3.32

---

Molecular target: UniProt Q9UGN5
Test: Fluorescence polarization probe displacement assay
Assay type: binding
Details: compound P1 as the probe
Structures can show the parent of a compound that is named as a salt.
value.type: DC50

Sample records with DC50:
CN1CCN(CCOc2c(-c3ccccc3)[nH]c(=O)c3cc(F)ccc23)CC1 [Compound 89, trifluoroacetate] | > 10 µM
O=c1[nH]c(-c2ccccc2)c(OCCCNCc2ccccc2)c2ccc(F)cc12 [Compound 87] | > 10 µM

Now let's try a different one.
UniProt Q9UGN5 data for O=c1[nH]c(-c2ccccc2)c(OCCN2CCNCC2)c2ccccc12 [Compound 6, di-hydrochloride] ; its DC50: > 10 µM
